observable: melting point

Exercise: Reported melting point, compound CCCc1cc(N2CCC(NCC(O)c3cnc4ccccc4c3)CC2)nc2sc(C(N)=O)c(N)c12 (centres undefined) : ____
Solution: 213 to 216 °C

Exercise: Reported melting point, compound COc1cc(CCN(C)Cc2ccc(OC)c(OC)c2)ccc1NC(=O)c1cccc2c(=O)c3cccc(F)c3[nH]c12 : ____
Solution: 161 to 162 °C

More entries:
Exercise: Reported melting point, compound O=C(C=Cc1ccccc1)CC(=O)C=Cc1ccccc1 : ____
Solution: 138 °C

Exercise: Reported melting point, compound CCCCC(=O)Nc1c(C)c(C)c2c(c1C)C(c1ccc(C(C)C)cc1)C(C)(C)O2 (centres undefined) : ____
Solution: 106 to 107 °C

###

observable: melting point (°C)
Give the quantity in °C, number only.

Exercise: Reported melting point, molecule CCOc1ccc2c(c1)n(C1CCCCC1)c(=O)n2Cc1ccc(N)cc1OC : ____
Solution: 191

Now for another entry.
Exercise: Reported melting point, molecule COc1ccc2c(c1)c1cc(-c3cc(F)cc(F)c3)c(=O)n(C)c1n2C : ____
Solution: 189

###

// reported melting point per item

// below: answered compounds
Exercise: Reported melting point, compound COC(=O)Cc1csc2cc(-c3ccccc3)cn12 : ____
Solution: 88 to 89 °C

Exercise: Reported melting point, compound OC1c2cc(OCc3ccc4ccccc4n3)ccc2OCCC1Oc1cccnc1 (centres undefined) : ____
Solution: 134 to 136 °C

Exercise: Reported melting point, compound CCOc1nc2ccccc2nc1NC(=O)N1CCN(C(c2ccccc2)c2ccccc2)CC1 : ____
Solution: 156 to 158 °C

Exercise: Reported melting point, compound COCC1CN(c2ccc(C3CCC(OCCCCC(N)=O)CC3)cc2)C(=O)O1 (racemic) : ____
Solution: 72 to 74 °C

More entries:
Exercise: Reported melting point, compound CC(C(=O)OC(C)(C)C)c1ccc(N2Cc3ccc(Br)cc3C2=O)cc1 (centres undefined) : ____
Solution: 164 to 165 °C

Exercise: Reported melting point, compound C#CCc1c(C)nc(C)nc1NCc1ccc(-c2ccccc2-c2nnn[nH]2)cc1 : ____
Solution: 205 to 206 °C

Exercise: Reported melting point, compound N#CN=C(N)c1cc2c(Oc3ccc(Cl)cc3)cncc2s1 : ____
Solution: 265 to 268 °C

Exercise: Reported melting point, compound COc1cc2c(c3c1OC(C)(C)C3)C(c1cccc(NC(=O)NCCCl)c1)=NC(C)(C)C2 : ____
Solution: 147 to 150 °C

Exercise: Reported melting point, compound Cc1ccc(Cn2c(-c3ccccc3)nc(Cl)c2CO)cc1 : ____
Solution: 173 to 175 °C

###

// reported melting point per item
Give the quantity in °C, number only.

Exercise: Reported melting point, compound O=C(NC(=O)c1ccccc1Br)Nc1cc(C(F)(F)F)c(Cl)cc1Br : ____
Solution: 193

More entries:
Exercise: Reported melting point, compound N#Cc1ccc([C@@H]2CNC[C@@]23NC(=O)N(c2cc(Cl)cc(Cl)c2)C3=O)cc1 (relative stereo) : ____
Solution: 198

###

// reported melting point per item

// below: answered compounds
Exercise: Reported melting point, compound COc1ccc(N(C(C)=O)C2=NN(c3ccc([N+](=O)[O-])cc3)C(=O)C2Br)cc1 (stereo not given) : ____
Solution: 163 to 164 °C

Exercise: Reported melting point, compound O=C(O)CCC(=O)c1ccc(Br)s1 : ____
Solution: 141 to 143 °C

Exercise: Reported melting point, compound CCCCOC(=O)C(NC(=O)OC(C)(C)C)c1c[nH]c2ccccc12 (stereo not given) : ____
Solution: 127 to 128 °C

Exercise: Reported melting point, compound O=c1c(CCO)cnc2c3ccccc3ccn12 : ____
Solution: 185 to 187 °C

Now for another entry.
Exercise: Reported melting point, compound COC1CC2CC(OC(=O)c3ccccc3)CCC2(C)C2CCC3(C)C(=C12)C(O)CC3C(C)CCCC(C)C (stereo not given) : ____
Solution: 182 to 183 °C

###

observable: melting point

// below: answered compounds
Exercise: Reported melting point, compound O=[N+]([O-])c1ccccc1-c1nc2ccccc2n1CC(O)CO (stereo not given) : ____
Solution: 182 to 183 °C

Exercise: Reported melting point, compound NC(=O)Nc1cc(Oc2ncccc2C(F)(F)F)c(Cl)cc1F : ____
Solution: > 220 °C

Exercise: Reported melting point, compound Nc1cc(C(F)(F)F)ccc1NC1CCCCC1 : ____
Solution: 70 °C

Exercise: Reported melting point, compound O=C(O)CCN(C1(C(=O)NO)CCCC1)S(=O)(=O)c1ccc(-c2ccc(F)cc2)cc1 : ____
Solution: 163 to 164 °C

More entries:
Exercise: Reported melting point, compound COC(=O)c1[nH]c2c(C)ccc(C)c2c1C(N)=O : ____
Solution: 201 to 202 °C

Exercise: Reported melting point, compound COc1cc(C(=O)c2ncc3ccc(NC(C)=O)cn23)ccc1[N+](=O)[O-] : ____
Solution: 257 °C

Exercise: Reported melting point, compound Cc1cc(C)cc(S(=O)(=O)c2nnc(C(F)(F)F)s2)c1 : ____
Solution: 110 °C

Exercise: Reported melting point, compound Cn1nnnc1-c1cn(C)c2cc(Cl)ccc2c1=O : ____
Solution: 270 to 273 °C

Exercise: Reported melting point, compound O=c1c(Cc2ccccc2)c2n(c(=O)n1CCCCCl)CCCS2(=O)=O : ____
Solution: 103 to 105 °C

Exercise: Reported melting point, compound Oc1ccc(-c2noc3cc(O)ccc23)c(O)c1 : ____
Solution: 300 to 305 °C

###

// reported melting point per item

Exercise: Reported melting point, compound COc1ccc(S(C)(=O)=O)cc1N : ____
Solution: 174 to 178 °C

Exercise: Reported melting point, compound O=C1NC(=O)C(=Cc2ccc(OC3CCN(c4ccccn4)CC3)cc2)S1 : ____
Solution: 218 to 220 °C

Exercise: Reported melting point, compound O=C(NCc1ccc(Cl)cc1)c1cnc2c(Cl)c(Cl)ccc2c1O : ____
Solution: 295 to 297 °C

Exercise: Reported melting point, compound Nc1ccc(S(=O)(=O)N2C=CC(CCO)Sc3ccccc32)cc1 (stereo not given) : ____
Solution: 145 to 148 °C

More entries:
Exercise: Reported melting point, compound BrCc1nsc2nc3ccccc3n12 : ____
Solution: 242 to 244 °C

Exercise: Reported melting point, compound CC(C)(COCC(C)(C)c1ccc(O)cc1)c1ccc(O)cc1 : ____
Solution: 69.2 to 70 °C

Exercise: Reported melting point, compound CN1CCN(c2cc(F)cc3c(=O)cc(C(=O)Nc4ccc(N5CCN(C(=O)O)CC5)cc4)oc23)CC1 : ____
Solution: 236 to 238 °C

Exercise: Reported melting point, compound C[C@@H](O)c1nccc(N2CCN(c3nc4cccnc4o3)CC2)n1 : ____
Solution: 153 to 156 °C

Exercise: Reported melting point, compound CCCc1nn(C)c2c(=O)[nH]c(-c3cc(CCC(=O)O)ccc3OCC)nc12 : ____
Solution: 165 to 167 °C

Exercise: Reported melting point, compound COc1ccc(C#Cc2cc(Cl)cc3c2OC(CC(F)(F)F)C(C(=O)O)=C3)cc1 (stereo not given) : ____
Solution: 218 to 219 °C

###

observable: melting point

// below: answered compounds
Exercise: Reported melting point, compound CC12CCC(=O)C=C1CCC1C2=CCC2(C)C(=C=C(Cl)S(=O)c3ccccc3)CCC12 (stereo unspecified) : ____
Solution: 210 to 213 °C

Exercise: Reported melting point, compound COc1cc2[nH]c(=O)[nH]c(=O)c2cc1Cl : ____
Solution: 356 to 358 °C

Exercise: Reported melting point, compound CSC(=Nc1ccccc1)Nc1ccccc1 : ____
Solution: 105 to 106 °C

Exercise: Reported melting point, compound O=C(O)CN(CC(=O)O)c1nc(N(CC(=O)O)CC(=O)O)nc(N(CC(=O)O)CC(=O)O)n1 : ____
Solution: 246 to 249 °C

Exercise: Reported melting point, compound O=C1Nc2ccc(Cl)cc2[C@@](/C=C/C2CC2)(C(F)(F)F)O[C@H]1C1CC1 (relative stereo) : ____
Solution: 143 to 144 °C

Exercise: Reported melting point, compound CS(=O)(=O)Cc1nnc(-c2ccc3occ(-c4cccc(OC(F)(F)F)c4)c3c2)o1 : ____
Solution: 162 to 163 °C

Exercise: Reported melting point, compound Cc1c(N2CCN(C=O)C(C)C2)c(F)cc2c(=O)c(C(=O)O)cn(C3CC3)c12 (stereo unspecified) : ____
Solution: 236 to 239 °C

Exercise: Reported melting point, compound O=[N+]([O-])c1ccccc1Nc1cccc(Nc2ccc(C(F)(F)F)cc2[N+](=O)[O-])c1 : ____
Solution: 95 to 98 °C

More entries:
Exercise: Reported melting point, compound CC(C)(C)NS(=O)(=O)c1cccc(NC(=O)c2cnn3c(C4CC4)cc(-c4ccc(Cl)cc4)nc23)c1 : ____
Solution: 238 to 239 °C

Exercise: Reported melting point, compound NS(=O)(=O)c1ccc(-c2cscc2-c2ccc(F)cc2)cc1 : ____
Solution: 194 to 195 °C

Exercise: Reported melting point, compound COCc1c[nH]c(-c2ccc(O)cc2)n1 : ____
Solution: 191 to 192 °C

Exercise: Reported melting point, compound CC(C)n1c2cc(Cl)ccc2c2oc(C(=O)Cl)cc21 : ____
Solution: 141 to 142 °C

Exercise: Reported melting point, compound COC(=O)CCc1cc2cc(C(F)(F)F)ccc2[nH]1 : ____
Solution: 106 to 108 °C

Exercise: Reported melting point, compound Nc1ccc2nc(CN3CCCC3)ccc2c1 : ____
Solution: 102 to 104 °C

Exercise: Reported melting point, compound CCCCc1cnc(C(N)=O)cc1N : ____
Solution: 103 to 105 °C

Exercise: Reported melting point, compound COc1cc(S)c(C(C)=O)c(OC)c1 : ____
Solution: 57 to 59 °C

Exercise: Reported melting point, compound CCC1CC(=O)N(Cc2ccc(N)cc2)N=C1c1ccc(OC)c(OC)c1 (stereo unspecified) : ____
Solution: 49 °C

Exercise: Reported melting point, compound COc1cc2nc(C)nc(Cl)c2cc1OCCCN1CCOCC1 : ____
Solution: 116 to 118 °C
